- system_name: HCoV-229E S protein (S1+S2 ECD) (HCoV-229E, strain not named (stand-in: …, UniProt P15423))
- Sequence (P15423 whole entry, looked up, the tested form may be a part): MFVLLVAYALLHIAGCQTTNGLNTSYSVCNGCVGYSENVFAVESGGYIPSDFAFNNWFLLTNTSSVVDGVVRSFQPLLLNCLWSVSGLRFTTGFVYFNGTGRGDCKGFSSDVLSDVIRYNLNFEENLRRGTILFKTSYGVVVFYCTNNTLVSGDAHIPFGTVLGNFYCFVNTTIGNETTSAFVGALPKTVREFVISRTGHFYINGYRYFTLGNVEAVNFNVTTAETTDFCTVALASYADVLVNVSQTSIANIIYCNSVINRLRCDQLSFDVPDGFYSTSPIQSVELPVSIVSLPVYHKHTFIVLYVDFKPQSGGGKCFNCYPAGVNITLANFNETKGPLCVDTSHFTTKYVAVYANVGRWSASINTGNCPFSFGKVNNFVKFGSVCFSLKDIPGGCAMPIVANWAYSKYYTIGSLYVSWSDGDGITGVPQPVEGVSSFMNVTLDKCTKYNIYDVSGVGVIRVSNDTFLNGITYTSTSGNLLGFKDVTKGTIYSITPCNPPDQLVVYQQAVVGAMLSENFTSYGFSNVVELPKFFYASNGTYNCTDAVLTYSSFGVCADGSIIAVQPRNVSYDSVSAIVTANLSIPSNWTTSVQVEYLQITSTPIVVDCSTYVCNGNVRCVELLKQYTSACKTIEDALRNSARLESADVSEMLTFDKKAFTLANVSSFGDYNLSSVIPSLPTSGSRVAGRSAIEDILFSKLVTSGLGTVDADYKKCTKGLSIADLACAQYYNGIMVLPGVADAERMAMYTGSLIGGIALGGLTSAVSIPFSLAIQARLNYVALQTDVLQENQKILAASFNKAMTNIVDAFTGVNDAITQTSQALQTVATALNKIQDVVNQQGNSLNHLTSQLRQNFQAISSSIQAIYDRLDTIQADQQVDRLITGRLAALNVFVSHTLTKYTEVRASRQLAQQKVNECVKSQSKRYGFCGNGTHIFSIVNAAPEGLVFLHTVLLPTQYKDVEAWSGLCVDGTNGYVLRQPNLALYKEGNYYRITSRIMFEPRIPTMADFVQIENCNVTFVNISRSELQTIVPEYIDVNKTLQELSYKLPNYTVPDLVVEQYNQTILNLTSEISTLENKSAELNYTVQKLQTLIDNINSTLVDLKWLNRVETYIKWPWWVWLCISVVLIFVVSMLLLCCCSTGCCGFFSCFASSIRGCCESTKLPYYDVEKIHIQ
- procedure_summary: ELISA
reported_metric: binding result

binder: C77G12 mAb (antibody, V domains shown) VH: EVQLVESGGGVVQPGRSLRISCAVSGFTFGSYAMHWVRQAPGKGLEWVGVMSSDGHNEYYADSVKGRFTISRDNSRNKLYLEMNNLRVDDTAVFYCARGSDYVDDSPPLHYWGQGTLVTVSS VL: DIQLTQSPSSLSASIGDRVTITCRASQDIANKLAWFQQAPGKAPKSLIYAASRLQSGVPSQFSGSGSGTDFTLTIESLQAGDFATYFCQQYDSFPFTFGPGTKVDVK
result: binds
--
binder: VP12E7 mAb (antibody, V domains shown) VH: QVQLVQSGGGVVQPGESLRLSCSGSGFTFNNYIMHWVRQAPGQGLDYVSGIGSDGRNTNYGDSVKGRFTISRDNSKDTLYLQMTSLRAEDTAFYYCVKGLDVLRFLDLSTPSGERLDAFDIWGQGTMVTVSS VL: DIVMTQSPSFLSASVGDRVTITCRASQGISNYLAWYQQKPGKAPHLLIYAASTLQSGVPSRFSGSGSGTEFTLTISSLQPEDFATYYCQQLNSYPLFTFGPGTKVDIE
result: binds
--
binder: C13B8 mAb (antibody, V domains shown) VH: QVQLQESGPGLVQPSQTLTLTCTVSGDSISNEDYHWTWIRQHPGKGLEWMGYLQYSGNTNYNPSLKSRMTISVDTSKNQFSLRLNSVTAADTAVYFCATSIVLTGMSNKIQPFDYWGQGTLVTVSS VL: SYELTQPPSVSVSPGQMARITCSGEALPKKYAYWYQQKGGQFPVLVIYKDTERPSGIPERFSGSSSGTIVTLTISGVQPEDEADYYCLSADTSGTWVFGGGTKLTVL
result: binds
